meta.source: ChEMBL document CHEMBL5352469

Measured half-life accompanies every entry in the list below.
# Assay details: Elimination half life in Sprague-Dawley rat at 50 mg/kg, po measured upto 24 hrs by LC/MS/MS analysis
# Format: ADME, organism-based
# Test parameters: in vivo, read-out: beta t1/2 (converted)
Endpoint name: half-life (h)

> print(dat)
                      smiles.representation  experimental.result
1  O=c1cc(N2CCN(CC3CCCCC3)CC2)sc2c([N+](=O)[O-])cc(C(F)(F)F)cc12                 3.83
2  O=C(O)/C=C\C(=O)O.O=c1cc(N2CCN(CC3CCCCC3)CC2)sc2c([N+](=O)[O-])cc(C(F)(F)F)cc12                 4.56
3  Cl.O=c1cc(N2CCN(CC3CCCCC3)CC2)sc2c([N+](=O)[O-])cc(C(F)(F)F)cc12                 5.38
